# target: (H^+ +K^+)-ATPase (Canis lupus familiaris, UniProt P50996)
# Sequence (P50996 whole entry): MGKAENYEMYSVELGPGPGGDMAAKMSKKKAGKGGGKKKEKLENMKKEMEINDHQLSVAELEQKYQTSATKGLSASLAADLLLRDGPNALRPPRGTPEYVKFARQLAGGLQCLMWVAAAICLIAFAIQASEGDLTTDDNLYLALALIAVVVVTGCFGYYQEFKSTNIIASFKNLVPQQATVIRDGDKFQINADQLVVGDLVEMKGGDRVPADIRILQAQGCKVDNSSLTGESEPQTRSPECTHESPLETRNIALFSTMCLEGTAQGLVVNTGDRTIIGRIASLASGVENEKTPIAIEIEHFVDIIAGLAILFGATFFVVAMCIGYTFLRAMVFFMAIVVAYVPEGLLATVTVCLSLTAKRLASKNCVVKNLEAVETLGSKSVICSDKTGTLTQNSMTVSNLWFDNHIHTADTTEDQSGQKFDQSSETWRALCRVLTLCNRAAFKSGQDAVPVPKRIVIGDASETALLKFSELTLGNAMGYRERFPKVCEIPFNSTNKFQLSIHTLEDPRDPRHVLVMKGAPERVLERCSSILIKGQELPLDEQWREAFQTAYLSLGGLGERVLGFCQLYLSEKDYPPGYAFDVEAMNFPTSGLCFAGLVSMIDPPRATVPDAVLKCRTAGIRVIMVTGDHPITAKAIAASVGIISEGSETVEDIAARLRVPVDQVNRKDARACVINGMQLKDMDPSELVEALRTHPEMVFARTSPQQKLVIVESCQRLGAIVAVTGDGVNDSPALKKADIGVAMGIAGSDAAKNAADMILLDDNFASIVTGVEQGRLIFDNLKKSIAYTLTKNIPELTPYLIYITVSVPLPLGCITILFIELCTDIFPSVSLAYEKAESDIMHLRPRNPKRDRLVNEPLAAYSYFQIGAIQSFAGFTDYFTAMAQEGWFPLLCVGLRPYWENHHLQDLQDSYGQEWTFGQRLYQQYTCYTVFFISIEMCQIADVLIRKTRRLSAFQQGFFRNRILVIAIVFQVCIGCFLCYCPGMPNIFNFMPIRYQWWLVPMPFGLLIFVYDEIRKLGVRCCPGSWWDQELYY
# Sequence (P33704 whole entry partner): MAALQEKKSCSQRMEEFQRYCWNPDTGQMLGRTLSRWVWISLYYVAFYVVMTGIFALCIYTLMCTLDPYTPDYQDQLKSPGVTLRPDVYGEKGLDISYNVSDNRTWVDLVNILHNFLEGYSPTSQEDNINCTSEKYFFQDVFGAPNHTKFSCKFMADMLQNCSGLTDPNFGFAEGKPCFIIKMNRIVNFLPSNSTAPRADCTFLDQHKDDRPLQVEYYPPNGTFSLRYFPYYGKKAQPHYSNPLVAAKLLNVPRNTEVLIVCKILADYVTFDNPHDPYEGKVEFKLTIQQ
# experiment.notes: Inhibition of (H^+ +K^+)-ATPase from Canine Gastric Mucosa
# experimental.setup: canine gastric mucosa microsomes; 30 min preincubation at 37°, pH 6.0; K^+-stimulated minus basal activity
measured.attribute: IC50 (µM)
Report the figure in µM without appending any unit label.

Give a short answer stating reported IC50 for [O-][S+](Cc1cnc2ccccn12)c1nc2ccccc2[nH]1 (centres unmarked) [Example 2, hydrate] . 3.88
